# ASSAY PROTOCOL: Cell viability by Trypan blue dye exclusion, kidney cells
# Format: in vivo, Wistar rats
# CONDITIONS: male, Wistar, rat, kidney cells, oral; % in relation to saline solution group; 50 mg/kg b.w. gavage x4 + i.p. saline
READOUT: viability at 24 h (%)
I only need the number, in %, no unit after it.

Entry COc1cc(C=CC(=O)CC(=O)C=Cc2ccc(O)c(OC)c2)ccc1O : reported viability at 24 h = ?
89

Entry source: paper PMC4763312
